organism: Rattus norvegicus; assay: Open TG-GATES - Regimen: Daily Repeat; format: toxicity, organism-based, Sprague-Dawley; design: regimen Daily Repeat, gender Male, age 6 weeks; conditions: in vivo, po, 1000 mg/kg, […], tissue Blood, route gavage, dose level High, time 14 day
What Lym was measured for each of the following?
Form entry: value (%) — number only.

The reported Lym of the compound CNC(=C[N+](=O)[O-])NCCSCc1ccc(CN(C)C)o1 [RANITIDINE] was 77.8

Looking up CN/C(=N/CCSCc1nc[nH]c1C)NC#N [CIMETIDINE] , I found its Lym recorded as 80.8

For CCOc1ccc(NC(C)=O)cc1 [PHENACETIN] the compound record lists Lym as 72

Input O=C(OC[C@H]1O[C@@H](OC(=O)c2cc(O)c(O)c(OC(=O)c3cc(O)c(O)c(O)c3)c2)[C@H](OC(=O)c2cc(O)c(O)c(OC(=O)c3cc(O)c(O)c(O)c3)c2)[C@@H](OC(=O)c2cc(O)c(O)c(OC(=O)c3cc(O)c(O)c(O)c3)c2)[C@@H]1OC(=O)c1cc(O)c(O)c(OC(=O)c2cc(O)c(O)c(O)c2)c1)c1cc(O)c(O)c(OC(=O)c2cc(O)c(O)c(O)c2)c1 [TANNIC ACID] . Output Lym: 74.8

According to the records, this compound Cc1nnc2n1-c1ccc(Cl)cc1C(c1ccccc1Cl)=NC2 [TRIAZOLAM] displays Lym of 78.6

Value of measured Lym for the entry COC(=O)C1=C(C)NC(C)=C(C(=O)OC)C1c1ccccc1[N+](=O)[O-] [NIFEDIPINE] : 73.8

----------
species: Rattus norvegicus; assay: Open TG-GATES - Regimen: Single; format: toxicity, organism-based, Sprague-Dawley; set-up: regimen Single, gender Male, age 6 weeks; settings: in vivo, po, 0 mg/kg, 6 h, tissue Plasma, route gavage, dose level Control
measured_quantity: TBIL (mg/dL)
Please reply with the bare figure in mg/dL and do not write the unit itself.

Lookup result for CCOc1ccc(NC(C)=O)cc1 ; measured TBIL: 0.052

Entry CN/C(=N/CCSCc1nc[nH]c1C)NC#N ; TBIL = 0.1

// TBIL value for CCCc1cc(=O)[nH]c(=S)[nH]1 : 0.3

// Cc1nnc2n1-c1ccc(Cl)cc1C(c1ccccc1Cl)=NC2 : TBIL value = 0.068

Item: CN1C(=O)CCS(=O)(=O)C1c1ccc(Cl)cc1 (stereo not drawn) | TBIL: 0.04

So, NC1=NC(=O)C(c2ccccc2)O1 (stereo not drawn) ? Its TBIL was 0.038

Form field TBIL, entry Nc1c2c(nc3ccccc13)CCCC2 : 0.016

Query Brc1ccccc1 yields TBIL of 0.054

----------
Consider the following molecules; for each one, report its ALP.
species on record: Rattus norvegicus; assay: Open TG-GATES - Regimen: Single; type: toxicity, organism-based, Sprague-Dawley; parameters: regimen Single, gender Male, age 6 weeks; details: in vivo, po, 300 mg/kg, 3 h, tissue Plasma, route gavage, dose level Middle
Numeric answer only, unit IU/L assumed.

get_value(item= Cc1nnc2n1-c1ccc(Cl)cc1C(c1ccccc1Cl)=NC2 , readout=ALP) returns 1451.2

The reported ALP of the molecule CNC(=C[N+](=O)[O-])NCCSCc1ccc(CN(C)C)o1 was 1000.2

Per the records, this molecule ( COC(=O)C1=C(C)NC(C)=C(C(=O)OC)C1c1ccccc1[N+](=O)[O-] ) has ALP equal to 1571

----------
species on record: Rattus norvegicus; experiment: Open TG-GATES - Regimen: Daily Repeat; assay type: toxicity, organism-based, Sprague-Dawley; parameters: regimen Daily Repeat, gender Male, age 6 weeks; conditions: in vivo, po, 1000 mg/kg, […], tissue Plasma, route gavage, dose level High, time 14 day
I'd appreciate it if you could supply Na values for the items below.
// return numeric value only (unit: meq/L, not printed)

The reported Na of the compound O=C(OC[C@H]1O[C@@H](OC(=O)c2cc(O)c(O)c(OC(=O)c3cc(O)c(O)c(O)c3)c2)[C@H](OC(=O)c2cc(O)c(O)c(OC(=O)c3cc(O)c(O)c(O)c3)c2)[C@@H](OC(=O)c2cc(O)c(O)c(OC(=O)c3cc(O)c(O)c(O)c3)c2)[C@@H]1OC(=O)c1cc(O)c(O)c(OC(=O)c2cc(O)c(O)c(O)c2)c1)c1cc(O)c(O)c(OC(=O)c2cc(O)c(O)c(O)c2)c1 [TANNIC ACID] was 140.4

Sure, the documented Na for CNC(=C[N+](=O)[O-])NCCSCc1ccc(CN(C)C)o1 [RANITIDINE] is 141.8

Entry under test: COC(=O)C1=C(C)NC(C)=C(C(=O)OC)C1c1ccccc1[N+](=O)[O-] [NIFEDIPINE] . Its Na was 143.4

So for CN/C(=N/CCSCc1nc[nH]c1C)NC#N [CIMETIDINE] , the logged Na turned out to be 141

// Na lookup, compound = CCOc1ccc(NC(C)=O)cc1 [PHENACETIN] , result: 143.2

get_value(item= Cc1nnc2n1-c1ccc(Cl)cc1C(c1ccccc1Cl)=NC2 [TRIAZOLAM] , readout=Na) returns 141.8

----------
organism: Rattus norvegicus; assay: Open TG-GATES - Regimen: Single; format: toxicity, organism-based, Sprague-Dawley; set-up: regimen Single, gender Male, age 6 weeks; conditions: in vivo, po, 1000 mg/kg, 3 h, tissue Blood, route gavage, dose level High
measured_quantity: MCV (fL)
Form entry: value (fL) — number only.

Note to self: MCV recorded for Cc1nnc2n1-c1ccc(Cl)cc1C(c1ccccc1Cl)=NC2 was 63

The measured MCV associated with O=C(OC[C@H]1O[C@@H](OC(=O)c2cc(O)c(O)c(OC(=O)c3cc(O)c(O)c(O)c3)c2)[C@H](OC(=O)c2cc(O)c(O)c(OC(=O)c3cc(O)c(O)c(O)c3)c2)[C@@H](OC(=O)c2cc(O)c(O)c(OC(=O)c3cc(O)c(O)c(O)c3)c2)[C@@H]1OC(=O)c1cc(O)c(O)c(OC(=O)c2cc(O)c(O)c(O)c2)c1)c1cc(O)c(O)c(OC(=O)c2cc(O)c(O)c(O)c2)c1 reads 65.1

Summary for this molecule, CN/C(=N/CCSCc1nc[nH]c1C)NC#N : MCV is 63.1

Lab note: COC(=O)C1=C(C)NC(C)=C(C(=O)OC)C1c1ccccc1[N+](=O)[O-] gave MCV of 63.8

MCV reported for this molecule CNC(=C[N+](=O)[O-])NCCSCc1ccc(CN(C)C)o1 : 62.7

----------
species: Rattus norvegicus; experiment: Open TG-GATES - Regimen: Single; type: toxicity, organism-based, Sprague-Dawley; design: regimen Single, gender Male, age 6 weeks; settings: in vivo, po, 1000 mg/kg, 3 h, tissue Blood, route gavage, dose level High
Answer each item with its documented Ht.
Give the quantity in %, number only.

Reported Ht ( COC(=O)C1=C(C)NC(C)=C(C(=O)OC)C1c1ccccc1[N+](=O)[O-] ) = 39.9

What the record says about CNC(=C[N+](=O)[O-])NCCSCc1ccc(CN(C)C)o1 : Ht is 36.7

// Ht value for CN/C(=N/CCSCc1nc[nH]c1C)NC#N : 36.7

Notebook: Cc1nnc2n1-c1ccc(Cl)cc1C(c1ccccc1Cl)=NC2 , Ht read as 41.7

Ht measured on O=C(OC[C@H]1O[C@@H](OC(=O)c2cc(O)c(O)c(OC(=O)c3cc(O)c(O)c(O)c3)c2)[C@H](OC(=O)c2cc(O)c(O)c(OC(=O)c3cc(O)c(O)c(O)c3)c2)[C@@H](OC(=O)c2cc(O)c(O)c(OC(=O)c3cc(O)c(O)c(O)c3)c2)[C@@H]1OC(=O)c1cc(O)c(O)c(OC(=O)c2cc(O)c(O)c(O)c2)c1)c1cc(O)c(O)c(OC(=O)c2cc(O)c(O)c(O)c2)c1 = 38.9

----------
species: Rattus norvegicus; assay: Open TG-GATES - Regimen: Daily Repeat; assay type: toxicity, organism-based, Sprague-Dawley; design: regimen Daily Repeat, gender Male, age 6 weeks; settings: in vivo, po, 0 mg/kg, […], tissue Plasma, route gavage, dose level Control, time 14 day
Labelling: TC reported below 70 mg/dL becomes satisfied; at or above becomes not satisfied.

Input Nc1c2c(nc3ccccc13)CCCC2 ; condition: TC strictly below 70 mg/dL. Does it hold? not satisfied

Record Cc1nnc2n1-c1ccc(Cl)cc1C(c1ccccc1Cl)=NC2 : is its TC strictly below 70 mg/dL? not satisfied

Identify whether the compound CN(C)CCC(c1ccc(Cl)cc1)c1ccccn1 (stereo not drawn) records TC below 70 mg/dL. not satisfied

Could you please tell me whether TC recorded for NC1=NC(=O)C(c2ccccc2)O1 (stereo not drawn) is less than 70 mg/dL? not satisfied

# TODO verify TC < 70 mg/dL strictly for this compound: CC(C)NNC(=O)c1ccncc1 satisfied

Does the reported TC of Brc1ccccc1 stay below 70 mg/dL? not satisfied

Does CCOc1ccc(NC(C)=O)cc1 have TC strictly under 70 mg/dL? not satisfied

Just wondering, is TC of COC(=O)C1=C(C)NC(C)=C(C(=O)OC)C1c1ccccc1[N+](=O)[O-] below 70 mg/dL? not satisfied

I'd appreciate it if you could check whether CNC(=C[N+](=O)[O-])NCCSCc1ccc(CN(C)C)o1 has TC smaller than 70 mg/dL. satisfied
